Biological target: human full-length MKNK1 (Homo sapiens, UniProt Q9BUB5, T385D)
Sequence (Q9BUB5 1-424 isoform Q9BUB5-2 T344D): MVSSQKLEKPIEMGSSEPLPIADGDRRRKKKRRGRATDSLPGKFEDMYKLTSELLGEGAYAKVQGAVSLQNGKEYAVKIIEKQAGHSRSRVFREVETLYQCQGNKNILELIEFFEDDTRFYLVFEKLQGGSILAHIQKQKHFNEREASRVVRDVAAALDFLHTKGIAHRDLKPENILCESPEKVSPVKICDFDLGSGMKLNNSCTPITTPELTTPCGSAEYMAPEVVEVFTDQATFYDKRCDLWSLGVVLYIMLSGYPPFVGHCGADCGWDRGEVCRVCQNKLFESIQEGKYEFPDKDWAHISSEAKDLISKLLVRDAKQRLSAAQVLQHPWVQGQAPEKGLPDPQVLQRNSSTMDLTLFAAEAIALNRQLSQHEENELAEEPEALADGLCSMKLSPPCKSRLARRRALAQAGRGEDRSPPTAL
Test: MKNK1 kinase high ATP assay (TR-FRET-based)
Conditions: ATP final conc. 2 mM, 15 min preincubation, 30 min reaction at 22° C.
Description: MKNK1 Kinase High ATP Assay MKNK1-inhibitory activity at high ATP of compounds of the present invention after their preincubation with MKNK1 was quantified employing the TR-FRET-based MKNK1 high ATP assay as described in the following paragraphs. […]
readout-kind: pIC50
The value called pIC50 is obtained by taking minus log10 of the concentration in mol/L.

Answered examples (5):
molecule: N[C@H]1C[C@H](Oc2ccc3ncc(-c4cc5c(O)nccc5o4)n3n2)C1 [Example 35]
system-under-test: human full-length MKNK1 (Homo sapiens, UniProt Q9BUB5, T385D)
pIC50: 7.36
--
molecule: COc1nccc2oc(-c3cnc4ccc(OC(CN)Cc5ccccc5)nn34)cc12 (stereo not shown) [Example 33]
system-under-test: human full-length MKNK1 (Homo sapiens, UniProt Q9BUB5, T385D)
pIC50: 6.93
--
molecule: CC(C)Oc1nccc2oc(-c3cnc4ccc(OC[C@H](C)N)nn34)cc12 [Example 19]
system-under-test: human full-length MKNK1 (Homo sapiens, UniProt Q9BUB5, T385D)
pIC50: 7.47
--
molecule: COc1nccc2oc(-c3cnc4ccc(OCC(C)CN)nn34)cc12 (stereo not shown) [Example 16]
system-under-test: human full-length MKNK1 (Homo sapiens, UniProt Q9BUB5, T385D)
pIC50: 7.72
--
molecule: N[C@H]1C[C@H](Oc2ccc3ncc(-c4cc5cnccc5o4)n3n2)C1 [Example 14]
system-under-test: human full-length MKNK1 (Homo sapiens, UniProt Q9BUB5, T385D)
pIC50: 7.47

Query: // query pIC50 value for entry COc1nccc2oc(-c3cnc4ccc(OC[C@H](C)N)nn34)cc12 [Example 5]
Response: 7.19

Query: // query pIC50 value for entry CC(C)(C)COc1nccc2oc(-c3cnc4ccc(O[C@H]5C[C@H](N)C5)nn34)cc12 [Example 24]
Response: 8.40

Query: // query pIC50 value for entry C[C@H](N)COc1ccc2ncc(-c3cc4ccncc4o3)n2n1 [Example 12]
Response: 7.19

Query: // query pIC50 value for entry N[C@@H](COc1ccc2ncc(-c3cc4cnccc4o3)n2n1)c1ccccc1 [Example 7]
Response: 7.04

Query: // query pIC50 value for entry COc1nccc2oc(-c3cnc4ccc(OC[C@H](N)COCc5ccccc5)nn34)cc12 [Example 11]
Response: 7.23

Query: // query pIC50 value for entry C[C@@H](N)COc1ccc2ncc(-c3cc4ncccc4o3)n2n1 [Example 17]
Response: 6.90

Query: // query pIC50 value for entry C[C@H](N)COc1ccc2ncc(-c3cc4c(OC5CCC5)nccc4o3)n2n1 [Example 41]
Response: 7.72

Query: // query pIC50 value for entry COc1nccc2oc(-c3cnc4ccc(O[C@H]5C[C@H](N)C5)nn34)cc12 [Example 2]
Response: 8.30

Query: // query pIC50 value for entry COc1nccc2oc(-c3cnc4ccc(OC[C@H](N)c5ccccc5)nn34)cc12 [Example 9]
Response: 7.03

Query: // query pIC50 value for entry CC(C)Oc1nccc2oc(-c3cnc4ccc(O[C@H]5C[C@H](N)C5)nn34)cc12 [Example 37]
Response: 7.77

Query: // query pIC50 value for entry C[C@H](N)COc1ccc2ncc(-c3cc4cnccc4o3)n2n1 [Example 20]
Response: 6.88

Query: // query pIC50 value for entry N[C@H]1C[C@H](Oc2ccc3ncc(-c4cc5ccncc5o4)n3n2)C1 [Example 13]
Response: 7.80

All values here come from patent US9643974B2.
